// data source = ChEMBL document CHEMBL2434947

# studyTarget: Muscarinic acetylcholine receptor M4 (Homo sapiens)
# Sequence (P08173 whole entry): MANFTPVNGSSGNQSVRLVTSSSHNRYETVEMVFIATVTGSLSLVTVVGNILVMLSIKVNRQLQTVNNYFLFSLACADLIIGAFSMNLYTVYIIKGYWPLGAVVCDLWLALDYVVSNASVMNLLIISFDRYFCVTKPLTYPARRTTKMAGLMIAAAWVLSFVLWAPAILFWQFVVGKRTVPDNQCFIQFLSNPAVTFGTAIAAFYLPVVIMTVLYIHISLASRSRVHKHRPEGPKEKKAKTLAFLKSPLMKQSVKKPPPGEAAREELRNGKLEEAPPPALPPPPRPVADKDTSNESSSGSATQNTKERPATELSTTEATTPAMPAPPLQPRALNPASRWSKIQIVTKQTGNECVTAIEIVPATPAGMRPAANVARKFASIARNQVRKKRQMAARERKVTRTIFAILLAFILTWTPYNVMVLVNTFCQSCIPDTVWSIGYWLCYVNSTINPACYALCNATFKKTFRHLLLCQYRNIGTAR
# experimentalProtocol: Positive allosteric modulation of human muscarinic M4 receptor expressed in CHO Flp-In cells assessed as stimulation of acetylcholine-induced ERK1/2 phosphorylation incubated under green light condition by fluorescence assay
# Format: cell-based
# experimentalContext: read-out: EC50
We begin with a simple list: items and their reported pEC50.
Recall that pEC50 is obtained by taking minus log10 of the concentration measured in molar.

Sample answers from the record:
| compoundStructureString | pEC50 |
| --- | --- |
| COc1cccc(CNC(=O)c2sc3nc(C)cc(C)c3c2N)c1 | 6.25 |
| Cc1cc(C)c2c(N)c(C(=O)NCc3ccc(F)cc3)sc2n1 | 6.66 |
| Cc1cc(C)c2c(N)c(C(=O)NCc3cccc(F)c3)sc2n1 | 6.51 |
| Cc1cc(C)c2c(N)c(C(=O)NCc3ccccc3F)sc2n1 | 6.89 |

Now for another entry.
Query block: Find the recorded pEC50 belonging to COc1ccc(CNC(=O)c2sc3nc(C)cc(C)c3c2N)c(F)c1F and report it.
Result block: 6.62
